- system_under_test: Paramecium calmodulin, full-length (residues 1-148) (Paramecium, UniProt P07463 1-149)
- assay_protocol: fluorescence polarisation
Where no end group is shown, it is not given here.

binder: fluorescein-KRKQEEVSAIVIQRAYRRYLLKQKVKK [Fluoresceinated Nav1.2IQp, peptide of residues 1901-1927 of the Nav1.2 alpha-subunit]
Kd: ≤ 10 nM

These entries and their values trace back to paper PMC3094505.
